Cited source: paper PMC4552634

# Test system: HepG2 cells
# measurement description: Cytotoxicity in HepG2 cells (intracellular ATP, ATPlite, 48 h)
# Assay type: cell-based, human
# condition parameters: HepG2 cells; IC50 per ratio column head; unit inferred
property name: IC50 (µM)

* COc1ccc(CCNCCCCNCCc2ccc(OC)c3ccccc23)c2ccccc12 | 3.14
* C=C(C)Cn1cc(C2CCN(CCN3CCC(CNC(=O)c4ccc(-c5ccc(C#N)cc5)cc4)CC3)CC2)c2ccccc21 | 3.7
* CC(CCCCC(=O)Nc1ccc(CC(C)NCCc2cccc(Cl)c2)cc1)NCCc1cccc(Cl)c1 (stereo not drawn) | 6.59
* CN1CCN(c2nsc3ccc(-c4ccc(NC(=O)Nc5cc(C(F)(F)F)ccc5F)cc4)cc23)CC1 | 6.4
* CN(C)CCNCc1cccc(-c2ccc3c(Nc4ccc(Oc5ccccn5)cc4)ccnc3c2)c1 | 4.49
* COc1ccc(OC)c(-c2cccc(-c3cccc(NC(=O)c4ccc([N+](=O)[O-])o4)c3)n2)c1 | 6.15
* COc1ccc(CCNCCCCCCNCCc2ccc(Cl)cc2)c(Cl)c1OC | 6.2
* CCCCOc1ccc(C(=O)C(CCC(CNC(C)(C)C)C(=O)c2ccc(OCCCC)cc2)CNC(C)(C)C)cc1 (stereo not drawn) | 3.1
* O=C(/C=C/c1ccc(Cl)c(Cl)c1)N1CCC(CCN2CCC(c3c[nH]c4cnccc34)CC2)CC1 | 7.21
* CN1CCCN(Cc2cccc(-c3ccc(NS(=O)(=O)c4cccc5cccnc45)cc3)c2)CC1 | 6.5
* CC(Cc1ccc(CNC(=O)c2ccc(CC(C)NCCc3cccc(Cl)c3)cc2)cc1)NCCc1cccc(Cl)c1 (stereo not drawn) | 3.15
* CN1CCC(C(=O)N(Cc2ccc(-c3ccc(CNCCc4ccccc4)cn3)cc2)C2CCN(Cc3ccccc3)CC2)CC1 | 9.27
* C[C@H](Cc1ccc(Oc2ccc(C[C@@H](C)NC[C@H](O)c3cccc(Cl)c3)cc2)cc1)NC[C@H](O)c1cccc(Cl)c1 | 1.91
* COc1ccc(CNCc2ccc(F)cc2)cc1-c1ccc(S(=O)(=O)NCCN2CCCC2)cc1 | 6.5
* COc1ccc(CNCCc2cccs2)cc1-c1cccc(S(=O)(=O)NCCN2CCCC2)c1 | 11.4
* c1ccc2c(CNCCCN3CCN(CCCNCc4c5ccccc5cc5ccccc45)CC3)c3ccccc3cc2c1 | 6.28
* FC(F)(F)COc1ccc2ccccc2c1CNCCCCCCNCc1c(OCC(F)(F)F)ccc2ccccc12 | 3.04
* COc1ccc(CNC2Cc3ccccc3C2)cc1-c1ccc(S(=O)(=O)NCCN2CCCC2)cc1 | 8.28
* CCN(CC)CCN(Cc1ccc(-c2ccc(C(F)(F)F)cc2)cc1)C(=O)c1ccc(-c2ccc(NC(=O)OC)cc2C)cc1 | 5.4
* Cc1ccc2nc(C)cc(N/N=C/c3ccc([N+](=O)[O-])cc3)c2c1 | 0.19
* CCCCCCCN1CC[C@@H](CCCc2ccnc3ccc(OCC4CCCNC4)cc23)[C@@H](CC)C1 (stereo partly drawn) | 4.18
* CCC(CSC1CCCCC1)N(C)CCN(C)C(CC)CSC1CCCCC1 (stereo not drawn) | 0.87
* COc1ccc(C[C@H](N)C(=O)N[C@H]2[C@@H](O)[C@H](n3cnc4c(N(C)C)ncnc43)O[C@@H]2CO)cc1 | 2.69
* CN1CCN(CCCN(Cc2cccc(-c3cccc(CNC4CCCC4)c3)c2)C(=O)/C=C/c2ccccc2)CC1 | 7.17
* CC(C)CNCc1cccc(-c2cccc(CN(CCCN3CCN(C)CC3)C(=O)NC3CCCCC3)c2)c1 | 16.8
* CCn1c(-c2nonc2N)nc2c(-c3cccc(NC(=O)Nc4cccc(Cl)c4)c3)ncc(OCCCN)c21 | 14.5
* CCCCCCCN1CC[C@@H](CCCc2ccnc3ccc(OCCN4CCNCC4)cc23)[C@@H](CC)C1 | 6.75

* * *

# Test system: P. falciparum stage V gametocytes
# measurement description: Gametocytocidal ATP bioluminescence assay (single point 5 μM and 1 μM, dose-response)
# Format: cell-based, Plasmodium falciparum
# condition parameters: P. falciparum gametocytes, 5 μM single concentration, 48 h, decrease of ATP level (S1 Table)
property name: % Inhibition (%)

• Ic1cc(Nc2ncnc3ccsc23)ccc1OCc1ccccc1 = 8
• C=CCOc1cc(Cc2cnc(N)nc2N)cc(OC)c1OC = -4
• CC1CCN(C(=O)C(Cc2c[nH]c3ccccc23)NS(=O)(=O)c2ccc(Cl)cc2)CC1 (centres unmarked) = 54
• COc1ccc2nccc([C@@H](O)CN3CCC(NCc4nc5c(OCc6ccccc6)cccc5[nH]4)CC3)c2c1 = 34
• Cc1cc(NC(=O)c2cccs2)ccc1OC1CCN(Cc2ccccc2)C1 (centres unmarked) = -2.76
• Cc1nc(C)c(CC(=O)Nc2cccc(-c3cccc(-c4nc5ccc(C(F)(F)F)cc5[nH]4)c3)c2)s1 = 4.51
• Cc1nc(C)c(CC(=O)Nc2ccc(-c3cccc(-c4nc5ccc(C(F)(F)F)cc5[nH]4)c3)cc2)s1 = -50
• CNc1c2c(nc3ccc(NC(=O)CCCCCCc4ccccc4)cc13)CCCC2 = 79
• CC(=O)c1c(C)[nH]c(C(=O)Nc2ccc(-c3nc4ccc(C)cc4s3)cc2)c1C = 55
• Cc1cccc2nc(-c3cccc(-c4ccc(NC(=O)Cc5ccc[n+]([O-])c5)cc4)c3)[nH]c12 = -16
• C=CCc1cc(Cc2cnc(N)nc2N)cc(CCC)c1OC = 23
• CCOc1ccc(NC(=O)c2cccc(CN3CCCN(Cc4cccc(O)c4)CC3)c2)cc1 = -5
• Cc1cc(NC(=O)c2ccco2)ccc1OC1CCN(Cc2ccccc2)CC1 = 12
• CN(Cc1cccc(C#N)c1)C1CCN(c2cc(NC(=O)c3ccc(F)cc3)ccn2)CC1 = -6
• COc1ccc(CN2CCCN(Cc3cccc(C(=O)Nc4ccc(C(C)(C)C)cc4)c3)CC2)cc1 = 5.59
• COc1ccc2[nH]cc(C3CCN(Cc4ccc(NC(=O)c5ccc(-c6ccccc6)cc5)cc4)CC3)c2c1 = 8
• COc1ccc2nccc([C@@H](O)CN3CCC(NCc4ccc5scnc5c4)CC3)c2c1 = 10

* * *

# System: HepG2 cells
# measurement description: Cytotoxicity in HepG2 cells (intracellular ATP, ATPlite, 48 h)
# Assay type: cell-based, human
# condition parameters: HepG2 cells; IC50 per ratio column head; unit inferred
// IC50 lookup, one value per entry
property name: IC50 (µM)

- Cc1ccccc1OCC(O)CNC1CCC(NCC(O)COc2ccccc2C)CC1 (stereo not shown): 3.78
- CN(CCCCN)Cc1ccc(-c2ccc(Cl)cc2)cc1: 3.99
- Cc1cc(NCCc2ccccc2)nc(/N=C(\N)Nc2ccccc2Cl)n1: 13.6
- CCCCCCCn1c(=N)n(CC(O)c2ccc(Cl)c(Cl)c2)c2ccccc21 (stereo not shown): 6
- CCCCOc1c(CCNCCCCNCCc2cc(OC)c3ccccc3c2OCCCC)cc(OC)c2ccccc12: 3.1
- O=C(CC1CCCC1)N(Cc1ccc(-c2ccc(CNC3Cc4ccccc4C3)cc2)cc1)CC1CCCCN1 (stereo not shown): 6.47
- O=C(Nc1cccc(Oc2ccccc2)c1)N[C@H]1CCN(Cc2ccc(OCCCN3CCCCC3)cc2)C1: 3.52
- COc1cc2ccccc2cc1OCCCN1CCN(CC(c2ccc(F)cc2)N2CCN(C(C)C)CC2)CC1 (stereo not shown): 3.72
- O=C(c1cccs1)N(Cc1cccc(-c2ccc(CNC3CCCC3)cc2)c1)C1CCN(Cc2ccccc2)CC1: 7.1
- Cc1cc(-c2cccc(CNC3CCCC3)c2)ccc1S(=O)(=O)NCCN1CCCC1: 7.5
- C[C@H](Cc1ccc(CCc2ccc(C[C@@H](C)NC[C@H](O)c3cccc(Cl)c3)cc2)cc1)NC[C@H](O)c1cccc(Cl)c1: 3.1
- CC(C)CNCc1ccc(-c2ccc(CN(CCCN3CCN(C)CC3)C(=O)/C=C/c3ccccc3)cc2)cc1: 6.99
- N=c1n(CCN2CCCCC2)c2ccccc2n1CC(O)c1ccc(Cl)c(Cl)c1 (stereo not shown): 5.2
- CS(=O)(=O)CCNCc1nc(-c2ccc3c(=O)[nH]cnc3c2)cs1: 4.2
- c1ccc2c(NCCCCCCCCCNc3ccnc4ccccc34)ccnc2c1: 2.9

* * *

# measurement description: Cytotoxicity in HepG2 cells (intracellular ATP, ATPlite, 48 h)
# Format: cell-based, human
# condition parameters: human, HepG2 cells; IC50 per ratio column head; unit inferred
// IC50 lookup, one value per entry
property name: IC50 (µM)

• Cl.c1ccc2c(NCCCCCCCCCNc3c4ccccc4nc4ccccc34)c3ccccc3nc2c1 = 6.1
• c1ccc2c(c1)cc(CNCCCN1CCN(CCCNCc3cc4ccccc4c4ccccc34)CC1)c1ccccc12 = 13.7
• Cl.c1ccc2c(NCCCCCCNc3c4ccccc4nc4ccccc34)c3ccccc3nc2c1 = 7

* * *

# Tested on: HepG2 cells
# measurement description: Cytotoxicity in HepG2 cells (intracellular ATP, ATPlite, 48 h)
# Format: cell-based, human
# condition parameters: HepG2 cells; IC50 per ratio column head; unit inferred
pIC50: −log10 of the molar value.
property name: pIC50

- O=C(NCCCCN1CCC(c2ccc3c(c2OCCO)CCCC3)CC1)c1ccc2oc(-c3ccc(C(F)(F)F)cc3)cc2c1 [TCMDC-138771]: 5.18
- CCc1c(CCNCCCCCCNC(C)Cc2ccc3c(c2CC)OCO3)ccc(OC)c1OC (centres unmarked) [TCMDC-132052]: 5.51
- COc1ccc(C[C@H]2NC[C@H](O)[C@H]2OC(C)=O)cc1 [TCMDC-125504]: 6.72
- CCn1c(-c2nonc2N)nc2c(-c3cccc(NC(=O)Nc4cccc(C#N)c4)c3)ncc(OCCCN)c21 [TCMDC-136195]: 4.61
- CCN(CC)CCCNc1ncc2c(-c3ccc(NC(=O)Nc4cc(C(F)(F)F)ccc4F)cc3)nn(C)c2n1 [TCMDC-141583]: 5.02
- CC(=O)N(Cc1ccc(CC(C)NCCc2cccc(Cl)c2)cc1)Cc1ccc(CC(C)NCCc2cccc(Cl)c2)cc1 (centres unmarked) [TCMDC-139678]: 5.64
- CCCOc1ccc(CCNCCCCNCCc2ccc(OCCC)c3ccccc23)c2ccccc12 [TCMDC-137952]: 5.59
